We begin with a simple list: items and their reported MT1 LE.
Biological target: MT1 (Homo sapiens, UniProt P48039)
Construct: expressed in transfected cells; host or cells: HEK293T (ATCC CRL-11268), transient transfection
Sequence (P48039 whole entry): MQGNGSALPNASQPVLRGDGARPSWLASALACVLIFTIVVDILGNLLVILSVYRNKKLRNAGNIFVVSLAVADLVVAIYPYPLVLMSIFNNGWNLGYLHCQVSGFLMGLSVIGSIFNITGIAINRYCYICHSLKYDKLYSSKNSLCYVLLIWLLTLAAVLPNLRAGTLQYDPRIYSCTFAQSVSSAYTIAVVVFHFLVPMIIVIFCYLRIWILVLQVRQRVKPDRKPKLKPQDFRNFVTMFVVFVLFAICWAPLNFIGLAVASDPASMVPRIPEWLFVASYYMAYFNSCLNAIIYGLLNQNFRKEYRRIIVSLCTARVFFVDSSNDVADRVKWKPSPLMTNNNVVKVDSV
Assay: GloSensor Gi/o-mediated cAMP production inhibition assay, MT1
Format: cell-based
Settings: ligand efficiency (based on EC50)

[[record]]
compound = "COc1ccc2[nH]cc(CCNC(N)=O)c2c1 [Compound 28, [2-(5-methoxy-1H-indol-3-yl)ethyl]urea]"
result = "0.86 kcal/mol per non-hydrogen atom"


# MT1 LE lookup, item COc1cccc(CNC(=O)c2ccno2)c1
0.47 kcal/mol per non-hydrogen atom

Another compound to look at: COC(=O)c1[nH]c2cc(OC)ccc2c1N
0.54 kcal/mol per non-hydrogen atom

Another compound to look at: CC(=O)c1sc2nc3c(cc2c1N)CCC3
0.44 kcal/mol per non-hydrogen atom
